B1: TPR 5TU (parent)
chain: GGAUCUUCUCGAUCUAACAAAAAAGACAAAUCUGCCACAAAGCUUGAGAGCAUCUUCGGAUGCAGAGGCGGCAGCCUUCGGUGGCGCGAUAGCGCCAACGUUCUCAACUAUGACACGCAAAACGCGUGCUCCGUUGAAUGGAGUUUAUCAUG

- Variants of: B1
- Measurement Protocol: polymerase ribozyme fitness, log enrichment relative to wild type (log ratio); higher = more active; in vitro selection for triplet polymerase activity
Fewer inactive variants are shown than the library holds.
Note to self: values exactly at -2 are Fulfilled. So polymerase ribozyme fitness (log ratio) at or above -2 is Fulfilled, below is Not fulfilled.

{"Variant Id": "A20C A52U G68C G84A U134C", "Group Label": "Not fulfilled"}

Quick check, polymerase ribozyme fitness (log ratio) >= -2? A29U C36A A47C C118U U146C
Not fulfilled

Let us now turn to U44A A73U C105G A120G
Not fulfilled

Let us now turn to U55A G81A G86A U109G A150G
Not fulfilled

Attribution: the RNAGym collection of RNA variant scans (doi:10.1073/pnas.2313332121)
